glycan array binding signal (z-score) listing for selected binders.
target: Neu5Ac(a2-3)Gal(b1-4)[Fuc(a1-3)]GlcNAc(b1-3)Gal(b1-4)GlcNAc; assay: glycan array binding signal (z-score within array); higher = stronger binding; conditions: glycan notation: IUPAC condensed, linker removed
Shown is part of a subset that was picked to be rich in the strongest signals.
Number only, please.

| binder | glycan array binding signal (z-score) |
| --- | --- |
| Actd5 (Actinidia), P84527 (protein) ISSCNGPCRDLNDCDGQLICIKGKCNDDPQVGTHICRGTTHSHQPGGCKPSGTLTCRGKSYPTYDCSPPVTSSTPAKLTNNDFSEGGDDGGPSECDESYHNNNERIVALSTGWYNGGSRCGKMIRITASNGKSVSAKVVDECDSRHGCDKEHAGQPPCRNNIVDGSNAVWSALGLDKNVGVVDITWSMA | 0.65 |
| MXA PilAct-eGFP (Myxococcus xanthus), Q59589 (protein) MRVSRFNPRNRGFTLIELMIVVAIIGILAAIAIPNFIKFQARSKQSEAKTNLKALYTAQKSFFSEKDRYSDFANEIGFAPERGNRYGYRVSAAAGDCEVRNAADLPVPAAGVPCISNDSFRFGANSAIDDPTPVVARFVPQGAAGWNTTLGVQPTIADCPNCNFFAGARGNADNEATFDDWVIAGFEGSGQVGPCSEAGNVASGTPYNTRNDVACDGAAQ | -0.9 |
| MRCL (Homo sapiens), NP_872425.1 (protein) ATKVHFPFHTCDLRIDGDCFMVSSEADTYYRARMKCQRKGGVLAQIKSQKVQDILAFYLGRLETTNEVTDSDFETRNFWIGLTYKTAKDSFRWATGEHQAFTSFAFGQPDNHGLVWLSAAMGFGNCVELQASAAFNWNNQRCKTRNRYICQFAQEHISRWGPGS | -0.637 |

Need glycan array binding signal (z-score) of Tap1 (Sordaria macrospora), Q50IV4 (protein) MSHHHHHHHHYTLHLRLINDTSDTLTLVEQTSWWGKNTIWSQVRSTGVHVLSMAASGSSGMLRFQTSKGDFFAVAVGVHNYKRWCDVLVDTADEAPLTKLHPKYYDDKDAKYQALWAQASEFEAKSKSGKTVRIKFYQADGNVLRATVEYL , thanks. -0.144
